Test system: RPMI-8226 leukemia
Test: NCI-60 one-dose screen, 48 h (100 = growth as untreated, 0 = no growth, -100 = all killed)
Conditions: 10 µM unless noted
Compounds without any hit were thinned out: in the full panel of roughly 83,000, 20% have a hit.
Binary label based on growth with cut-off 60%: below gives t, not below gives f.

{"compound": "COc1cc(N)c2nccc(C)c2c1OC", "target.or.system": "RPMI-8226 leukemia", "label.value": "f"}
{"compound": "Oc1ccc(N=Nc2ccc(N=Nc3ccccc3)cc2)cc1", "target.or.system": "RPMI-8226 leukemia", "label.value": "t"}
{"compound": "C#CCCCCCCC[C@@H]1OC(=O)[C@H]([C@@H](C)CC)NC(=O)[C@H]([C@@H](C)CC)NC(=O)CC(=O)[C@@H]1C", "target.or.system": "RPMI-8226 leukemia", "label.value": "f"}
{"compound": "OCC(O)C(O)CC1SCCS1 (stereo unspecified)", "target.or.system": "RPMI-8226 leukemia", "label.value": "f"}
{"compound": "Nc1nc2cc(O)ccc2n2cc3c(F)cccc3c12", "target.or.system": "RPMI-8226 leukemia", "label.value": "t"}
{"compound": "CC(C)CCCCCOC(=O)c1ccccc1SSc1ccccc1C(=O)OCCCCCC(C)C", "target.or.system": "RPMI-8226 leukemia", "label.value": "f"}

A record lists CCOC(=O)c1c(C)oc2ncnc(Nc3ccc(C(=O)NCCc4ccccc4)cc3)c12 . Is its growth below 60%?
f

Could you please tell me whether growth recorded for CCCCCCCCCCCCCCCCCCOP(=O)(O)O is less than 60%?
f

Decide: growth of CCCCCCC(C(=O)OCC)(C(=O)OCC)C1CCCCCC1 strictly below 60%?
f
